Tested on: 485368-065-R4-J2-PDC spheroids with HUVEC/MSC, viability;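 also: spheroids exposed to compounds for seven days; 100% = DMSO vehicle control wells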
Experiment: Anticancer human tumor 485368-065-R4-J2-PDC patient-derived pancreatic carcinoma cell line growth inhibition [CLK]
Details: second compound 0.0316 µM; first compound 3.16 µM; active compounds read low
From the text: A high-throughput screen of multi-cell type tumor spheroids was designed to identify active combinations of […] and targeted small molecules. Complex spheroids include a stromal component modeled by human endothelial cells (HUVEC) and fibroblasts modeled by human mesenchymal stem cells (MSCs). […] Compounds. […] If the clinical Cmax for an agent had not been determined, the highest concentration tested was 10 microM. […]
Catalogue of molecules with associated viability, T/C

- MOLECULE: "COc1ccc([C@@H](O)c2cc(-c3ncnc4cc(N5CCOCC5)ccc34)c(F)cc2Cl)nn1 + CNC(=O)c1ccc(Nc2nc(OC3CCCC3)c3c(-c4ccc5nc(C)oc5c4)c[nH]c3n2)c(OC)c1"
  UNITS TEXT: "%"
  viability, T/C: 122
- MOLECULE: "C=C(F)C(=O)N1CCN(c2nc(OCC3CCCN3C)nc3c2CCN(c2cccc4cccc(Cl)c24)C3)CC1CC#N (stereo not given) + CN1CCN(c2cc(C(=O)Nc3cc4cc(-c5cnn(C)c5)ccc4cn3)ccn2)CC1"
  UNITS TEXT: "%"
  viability, T/C: 105
- MOLECULE: "Nc1ccn(C2OC(CO)C(O)C2(F)F)c(=O)n1 (stereo not given) + CNC(=O)c1ccc(Nc2nc(OC3CCCC3)c3c(-c4ccc5nc(C)oc5c4)c[nH]c3n2)c(OC)c1"
  UNITS TEXT: "%"
  viability, T/C: 33.5
- MOLECULE: "COc1ccc([C@@H](O)c2cc(-c3ncnc4cc(N5CCOCC5)ccc34)c(F)cc2Cl)nn1 + CN1CCN(c2cc(C(=O)Nc3cc4cc(-c5cnn(C)c5)ccc4cn3)ccn2)CC1"
  UNITS TEXT: "%"
  viability, T/C: 109
- MOLECULE: "COc1cccc2c1C(=O)c1c(O)c3c(c(O)c1C2=O)CC(O)(C(=O)CO)CC3OC1CC(N)C(O)C(C)O1 (stereo not given) + CNC(=O)c1ccc(Nc2nc(OC3CCCC3)c3c(-c4ccc5nc(C)oc5c4)c[nH]c3n2)c(OC)c1"
  UNITS TEXT: "%"
  viability, T/C: 8.22
- MOLECULE: "O=C(c1cc(Cc2n[nH]c(=O)c3ccccc23)ccc1F)N1CCN(C(=O)C2CC2)CC1 + CN1CCN(c2cc(C(=O)Nc3cc4cc(-c5cnn(C)c5)ccc4cn3)ccn2)CC1"
  UNITS TEXT: "%"
  viability, T/C: 105
- MOLECULE: "Nc1ccccc1NC(=O)c1ccc(CNC(=O)OCc2cccnc2)cc1 + CNC(=O)c1ccc(Nc2nc(OC3CCCC3)c3c(-c4ccc5nc(C)oc5c4)c[nH]c3n2)c(OC)c1"
  UNITS TEXT: "%"
  viability, T/C: 82.8
- MOLECULE: "CC(Nc1ccc2c(c1)OCCn1cc(N3C(=O)OCC3C(F)F)nc1-2)C(N)=O (stereo not given) + CN1CCN(c2cc(C(=O)Nc3cc4cc(-c5cnn(C)c5)ccc4cn3)ccn2)CC1"
  UNITS TEXT: "%"
  viability, T/C: 78.8
- MOLECULE: "CC(=O)O[C@H]1C(=O)[C@@]2(C)[C@H]([C@H](OC(=O)c3ccccc3)[C@]3(O)C[C@H](OC(=O)[C@H](O)[C@@H](NC(=O)c4ccccc4)c4ccccc4)C(C)=C1C3(C)C)[C@]1(OC(C)=O)CO[C@@H]1C[C@@H]2O + CN1CCN(c2cc(C(=O)Nc3cc4cc(-c5cnn(C)c5)ccc4cn3)ccn2)CC1"
  UNITS TEXT: "%"
  viability, T/C: 39.5
- MOLECULE: "C=CC(=O)N1CCN(c2nc(=O)n(-c3c(C)ccnc3C(C)C)c3nc(-c4c(O)cccc4F)c(F)cc23)C(C)C1 (stereo not given) + CN1CCN(c2cc(C(=O)Nc3cc4cc(-c5cnn(C)c5)ccc4cn3)ccn2)CC1"
  UNITS TEXT: "%"
  viability, T/C: 99.5

Every entry's value here was drawn from PubChem BioAssay AID2060617.
